# Target: CYP2D6 (Homo sapiens, UniProt P10635)
# Sequence (P10635 whole entry): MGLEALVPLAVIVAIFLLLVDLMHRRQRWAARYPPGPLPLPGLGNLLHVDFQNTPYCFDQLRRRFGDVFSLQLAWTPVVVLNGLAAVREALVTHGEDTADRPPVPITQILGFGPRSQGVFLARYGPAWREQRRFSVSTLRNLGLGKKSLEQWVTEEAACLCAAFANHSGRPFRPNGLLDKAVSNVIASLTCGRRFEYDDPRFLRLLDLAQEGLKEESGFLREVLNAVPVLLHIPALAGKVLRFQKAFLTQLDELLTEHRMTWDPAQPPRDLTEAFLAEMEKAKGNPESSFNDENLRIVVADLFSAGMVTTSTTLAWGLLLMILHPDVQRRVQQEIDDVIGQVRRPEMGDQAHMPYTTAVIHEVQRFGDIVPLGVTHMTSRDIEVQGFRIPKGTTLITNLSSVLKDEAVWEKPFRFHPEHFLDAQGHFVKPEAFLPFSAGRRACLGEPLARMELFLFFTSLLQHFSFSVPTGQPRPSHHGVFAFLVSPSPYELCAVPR
# Measurement description: Reversible CYP inhibition in human liver microsomes
# Stated conditions: human, microsomes, pH 7.4, Percent of Control Activity, CYP 2D6, 1 µM, Zero-Minute Preincubation
Attribute measured: activity at 1 µM (%)
Give just the numeric value; % need not be written.

Ask: Identify measured activity at 1 µM associated with COc1cccc2[nH]c(C(=O)N[C@@H](CC(C)C)C(=O)N[C@@H](C[C@@H]3CCNC3=O)C(=O)COP(=O)(O)O)cc12 [PF-07304814]
Result: 98.7

* * *

# Target: UniProt:P11712
# Sequence (P11712 whole entry): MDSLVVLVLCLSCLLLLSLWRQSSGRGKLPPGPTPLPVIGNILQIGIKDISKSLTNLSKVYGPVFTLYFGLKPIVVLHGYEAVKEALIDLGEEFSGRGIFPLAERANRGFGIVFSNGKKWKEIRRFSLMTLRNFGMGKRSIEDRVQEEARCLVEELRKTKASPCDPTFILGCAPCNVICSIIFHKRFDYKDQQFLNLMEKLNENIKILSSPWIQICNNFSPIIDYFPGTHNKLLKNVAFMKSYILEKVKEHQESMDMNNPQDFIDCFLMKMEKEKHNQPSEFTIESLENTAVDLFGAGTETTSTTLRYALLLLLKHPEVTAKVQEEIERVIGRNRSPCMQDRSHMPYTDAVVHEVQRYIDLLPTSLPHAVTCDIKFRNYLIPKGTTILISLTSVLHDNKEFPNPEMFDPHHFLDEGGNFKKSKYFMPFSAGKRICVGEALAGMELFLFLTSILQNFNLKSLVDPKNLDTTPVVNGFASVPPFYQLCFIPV
# Measurement description: Reversible CYP inhibition in human liver microsomes
# Stated conditions: human, microsomes, pH 7.4, Percent of Control Activity, CYP 2C9, 4.48 µM, Zero-Minute Preincubation
Attribute measured: activity at 4.48 µM
Quote the value and follow it with the unit of measurement.

Ask: Enter measured activity at 4.48 µM, system UniProt:P11712, for the compound shown: `COc1cccc2[nH]c(C(=O)N[C@@H](CC(C)C)C(=O)N[C@@H](C[C@@H]3CCNC3=O)C(=O)CO)cc12`
Result: 98.5%

* * *

# Target: CYP2C8 (Homo sapiens, UniProt P10632)
# Sequence (P10632 whole entry): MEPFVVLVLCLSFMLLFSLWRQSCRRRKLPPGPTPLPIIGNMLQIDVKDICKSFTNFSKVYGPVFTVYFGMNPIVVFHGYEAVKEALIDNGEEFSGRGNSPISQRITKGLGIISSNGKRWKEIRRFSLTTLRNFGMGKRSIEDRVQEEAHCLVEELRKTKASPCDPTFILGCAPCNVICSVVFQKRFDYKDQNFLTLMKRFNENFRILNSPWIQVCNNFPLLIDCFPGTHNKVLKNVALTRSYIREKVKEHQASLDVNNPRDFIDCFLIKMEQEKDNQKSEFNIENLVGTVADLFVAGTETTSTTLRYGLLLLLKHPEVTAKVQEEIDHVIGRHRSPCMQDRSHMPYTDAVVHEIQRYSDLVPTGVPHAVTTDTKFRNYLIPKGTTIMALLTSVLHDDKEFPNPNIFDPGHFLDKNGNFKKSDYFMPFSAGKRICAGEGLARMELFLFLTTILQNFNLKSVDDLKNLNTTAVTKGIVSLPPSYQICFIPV
# Measurement description: Reversible CYP inhibition in human liver microsomes
# Stated conditions: human, microsomes, pH 7.4, Percent of Control Activity, CYP 2C8, 39.8 µM, 30-Minute Preincubation
Attribute measured: activity at 39.8 µM (%)
Give just the numeric value; % need not be written.

Ask: Identify measured activity at 39.8 µM associated with `COc1cccc2[nH]c(C(=O)N[C@@H](CC(C)C)C(=O)N[C@@H](C[C@@H]3CCNC3=O)C(=O)COP(=O)(O)O)cc12`
Result: 88.9

* * *

# Target: CYP2C19 (Homo sapiens, UniProt P33261)
# Sequence (P33261 whole entry): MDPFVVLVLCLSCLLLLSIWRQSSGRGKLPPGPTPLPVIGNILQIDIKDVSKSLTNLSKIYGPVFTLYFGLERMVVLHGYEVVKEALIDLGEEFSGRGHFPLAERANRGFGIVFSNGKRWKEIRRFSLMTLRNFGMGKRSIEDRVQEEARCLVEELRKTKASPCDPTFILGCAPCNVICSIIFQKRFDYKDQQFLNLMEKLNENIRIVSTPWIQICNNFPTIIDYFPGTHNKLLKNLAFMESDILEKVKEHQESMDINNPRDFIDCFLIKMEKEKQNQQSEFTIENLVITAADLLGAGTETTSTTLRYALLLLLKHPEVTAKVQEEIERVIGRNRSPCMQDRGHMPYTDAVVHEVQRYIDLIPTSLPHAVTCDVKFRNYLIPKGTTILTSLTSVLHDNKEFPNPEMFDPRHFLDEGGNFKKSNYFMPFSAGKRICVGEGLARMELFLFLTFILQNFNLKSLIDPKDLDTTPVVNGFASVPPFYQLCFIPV
# Measurement description: Reversible CYP inhibition in human liver microsomes
# Stated conditions: human, microsomes, pH 7.4, Percent of Control Activity, CYP 2C19, 0.01 µM, 30-Minute Preincubation
Attribute measured: activity at 0.01 µM
Quote the value and follow it with the unit of measurement.

Ask: Identify measured activity at 0.01 µM associated with COc1cccc2[nH]c(C(=O)N[C@@H](CC(C)C)C(=O)N[C@@H](C[C@@H]3CCNC3=O)C(=O)COP(=O)(O)O)cc12 [PF-07304814]
Result: 103%

* * *

# Target: CYP2C8 (Homo sapiens)
# Measurement description: Reversible CYP inhibition in human liver microsomes
# Stated conditions: human, microsomes, pH 7.4, Percent of Control Activity, CYP 2C8, 200 µM, Zero-Minute Preincubation
Attribute measured: activity at 200 µM (%)
Give just the numeric value; % need not be written.

Ask: Identify measured activity at 200 µM associated with COc1cccc2[nH]c(C(=O)N[C@@H](CC(C)C)C(=O)N[C@@H](C[C@@H]3CCNC3=O)C(=O)CO)cc12 [PF-00835231]
Result: 79.6

* * *

# Measurement description: Metabolic stability and enzyme kinetics in liver S9 (conversion to PF-00835231)
# Stated conditions: cynomolgus monkey, liver S9, pH 7.5, CL, Cyno; unsaturable component, best-fit
Attribute measured: microsomal CLint

Ask: Identify measured microsomal CLint associated with `COc1cccc2[nH]c(C(=O)N[C@@H](CC(C)C)C(=O)N[C@@H](C[C@@H]3CCNC3=O)C(=O)COP(=O)(O)O)cc12`
Result: 3.06 µL/min/mg
